Listed compounds paired with reported IC50
- Target Of Assay: ATR kinase (Homo sapiens)
- Construct: endogenous in cells; host or cells: HT29 cells (ECACC #85061109)
- Sequence (Q13535 whole entry): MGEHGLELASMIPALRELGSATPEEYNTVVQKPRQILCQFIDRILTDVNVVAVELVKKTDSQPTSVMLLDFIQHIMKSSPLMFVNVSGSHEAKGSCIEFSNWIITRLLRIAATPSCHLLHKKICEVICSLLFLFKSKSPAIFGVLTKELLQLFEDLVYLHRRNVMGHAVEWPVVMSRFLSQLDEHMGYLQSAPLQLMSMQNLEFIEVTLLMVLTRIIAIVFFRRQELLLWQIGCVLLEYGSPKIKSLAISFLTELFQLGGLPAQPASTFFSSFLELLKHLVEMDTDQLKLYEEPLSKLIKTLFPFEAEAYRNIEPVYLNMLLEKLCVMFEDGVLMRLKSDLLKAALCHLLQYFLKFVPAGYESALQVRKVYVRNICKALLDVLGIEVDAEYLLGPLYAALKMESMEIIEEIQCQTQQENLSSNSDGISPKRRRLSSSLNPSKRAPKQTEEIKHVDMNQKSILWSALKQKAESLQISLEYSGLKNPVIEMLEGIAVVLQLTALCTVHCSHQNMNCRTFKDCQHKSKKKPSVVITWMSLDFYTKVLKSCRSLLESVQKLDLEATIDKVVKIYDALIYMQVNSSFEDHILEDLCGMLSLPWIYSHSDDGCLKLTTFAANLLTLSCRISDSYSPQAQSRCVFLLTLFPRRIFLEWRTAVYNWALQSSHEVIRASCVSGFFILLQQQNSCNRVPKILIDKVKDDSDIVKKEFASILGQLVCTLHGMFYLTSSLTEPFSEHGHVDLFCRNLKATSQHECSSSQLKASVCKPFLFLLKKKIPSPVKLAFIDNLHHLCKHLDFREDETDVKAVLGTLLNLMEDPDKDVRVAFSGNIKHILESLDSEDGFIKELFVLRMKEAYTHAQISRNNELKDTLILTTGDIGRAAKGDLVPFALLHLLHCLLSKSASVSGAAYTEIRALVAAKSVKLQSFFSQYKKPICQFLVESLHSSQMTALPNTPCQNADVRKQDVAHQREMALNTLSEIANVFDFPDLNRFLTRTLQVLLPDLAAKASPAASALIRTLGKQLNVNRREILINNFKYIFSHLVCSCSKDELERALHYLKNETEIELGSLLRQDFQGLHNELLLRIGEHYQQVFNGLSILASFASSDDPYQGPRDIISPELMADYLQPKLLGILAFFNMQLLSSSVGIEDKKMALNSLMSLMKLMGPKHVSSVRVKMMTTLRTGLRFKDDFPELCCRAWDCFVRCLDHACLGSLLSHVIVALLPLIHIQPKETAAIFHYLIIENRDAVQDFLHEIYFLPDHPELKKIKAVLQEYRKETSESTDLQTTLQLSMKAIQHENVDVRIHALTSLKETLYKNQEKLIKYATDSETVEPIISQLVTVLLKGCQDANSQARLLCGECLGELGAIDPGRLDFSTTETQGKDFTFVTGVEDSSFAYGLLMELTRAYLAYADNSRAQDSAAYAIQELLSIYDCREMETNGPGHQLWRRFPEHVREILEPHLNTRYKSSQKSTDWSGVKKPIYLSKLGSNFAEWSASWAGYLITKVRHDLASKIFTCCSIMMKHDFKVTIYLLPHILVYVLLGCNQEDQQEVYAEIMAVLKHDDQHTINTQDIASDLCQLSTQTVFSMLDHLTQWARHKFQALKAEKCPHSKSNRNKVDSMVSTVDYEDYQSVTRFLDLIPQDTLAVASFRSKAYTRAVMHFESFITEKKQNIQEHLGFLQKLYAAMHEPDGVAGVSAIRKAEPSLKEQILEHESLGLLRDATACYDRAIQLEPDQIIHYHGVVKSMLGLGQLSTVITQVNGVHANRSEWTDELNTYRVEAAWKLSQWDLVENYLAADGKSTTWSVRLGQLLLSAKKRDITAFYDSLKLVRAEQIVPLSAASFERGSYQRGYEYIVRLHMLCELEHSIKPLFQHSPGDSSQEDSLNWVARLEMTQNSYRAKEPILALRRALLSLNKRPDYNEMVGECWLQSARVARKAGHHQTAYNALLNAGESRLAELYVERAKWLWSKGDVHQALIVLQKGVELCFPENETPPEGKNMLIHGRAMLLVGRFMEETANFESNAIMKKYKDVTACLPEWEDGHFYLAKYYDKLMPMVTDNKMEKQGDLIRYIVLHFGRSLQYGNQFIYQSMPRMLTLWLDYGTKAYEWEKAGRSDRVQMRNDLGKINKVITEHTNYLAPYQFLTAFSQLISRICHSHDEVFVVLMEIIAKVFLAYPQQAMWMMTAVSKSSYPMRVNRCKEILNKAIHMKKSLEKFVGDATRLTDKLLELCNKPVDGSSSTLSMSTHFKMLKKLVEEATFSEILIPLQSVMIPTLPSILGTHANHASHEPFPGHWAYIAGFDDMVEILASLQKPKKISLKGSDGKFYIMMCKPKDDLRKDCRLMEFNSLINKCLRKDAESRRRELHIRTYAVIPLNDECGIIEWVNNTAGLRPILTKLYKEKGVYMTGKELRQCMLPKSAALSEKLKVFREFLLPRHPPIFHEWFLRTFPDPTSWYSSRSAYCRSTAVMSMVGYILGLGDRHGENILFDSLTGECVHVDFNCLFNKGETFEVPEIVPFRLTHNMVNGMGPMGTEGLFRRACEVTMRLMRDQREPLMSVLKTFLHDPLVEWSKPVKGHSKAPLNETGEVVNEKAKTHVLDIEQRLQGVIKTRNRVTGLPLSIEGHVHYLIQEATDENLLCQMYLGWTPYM
- Sequence (Q8WXE1 whole entry partner): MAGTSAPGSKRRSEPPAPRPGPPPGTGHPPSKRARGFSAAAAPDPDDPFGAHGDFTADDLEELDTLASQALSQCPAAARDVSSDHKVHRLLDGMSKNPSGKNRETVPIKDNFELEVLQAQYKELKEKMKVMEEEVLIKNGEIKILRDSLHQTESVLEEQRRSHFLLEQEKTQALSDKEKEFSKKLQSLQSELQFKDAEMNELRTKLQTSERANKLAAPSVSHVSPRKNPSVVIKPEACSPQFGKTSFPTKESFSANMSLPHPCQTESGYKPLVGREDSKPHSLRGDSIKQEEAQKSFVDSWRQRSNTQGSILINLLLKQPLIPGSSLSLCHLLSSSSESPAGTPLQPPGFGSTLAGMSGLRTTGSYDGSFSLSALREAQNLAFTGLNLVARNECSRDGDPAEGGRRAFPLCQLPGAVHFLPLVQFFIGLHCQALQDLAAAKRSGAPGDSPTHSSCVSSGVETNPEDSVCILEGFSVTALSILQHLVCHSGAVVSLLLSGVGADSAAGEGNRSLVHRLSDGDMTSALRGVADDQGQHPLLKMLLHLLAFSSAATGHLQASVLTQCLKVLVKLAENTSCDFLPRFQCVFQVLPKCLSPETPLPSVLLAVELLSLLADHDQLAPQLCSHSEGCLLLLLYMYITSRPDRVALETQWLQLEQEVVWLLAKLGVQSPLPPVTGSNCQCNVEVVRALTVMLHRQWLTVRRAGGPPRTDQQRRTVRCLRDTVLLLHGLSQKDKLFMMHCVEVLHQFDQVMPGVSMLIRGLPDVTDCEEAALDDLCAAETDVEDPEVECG
- Protocol Summary: Assay b): ATR cellular potency (pChk1 Ser345 in HT29 cells after 4NQO)
- Assay type: cell-based
- Measurement Conditions: HT29 cells, 4NQO, pChk1 Ser345; Table 3 comparative data; read-out: Assay b) ATR Cell IC50
Please state the figure in nM; there is no need to write the unit.

Use these answered entries as a reference point.
COc1ccc(-c2ccc3ncc4c(c3c2)n(C2CCNCC2)c(=O)n4C)cn1 [CN102372711A Compound 1, reference compound]
281
COc1ccc(-c2ccc3ncc4c(c3c2)n(C2CCN(C(C)=O)CC2)c(=O)n4C)cn1 [CN102372711A Compound 5, reference compound]
64.4
COC(=O)N1CCC(n2c(=O)n(C)c3cnc4ccc(-c5ccc(OC)nc5)cc4c32)CC1 [CN102372711A Compound 4, reference compound]
68.6
Cn1c(=O)n(C2CCOCC2)c2c3cc(-c4cnc(N)nc4)ccc3ncc21 [CN102399218A Compound 94, reference compound]
12.9

Now for a further compound.
Lab note: need IC50 for Cn1c(=O)n(C2CC2)c2c3cc(-c4cnc(N)nc4)ccc3ncc21 [CN102399218A Compound 64, reference compound] on ATR kinase (Homo sapiens), anyone have it?
162
